# assay.system: AgSla1-D3
# assay.explanation: SPOT peptide array binding signal intensity (averaged, normalized) (arbitrary units (background-subtracted, floor 0; scale differs between SH3 domains)); higher = stronger binding of the SH3 domain to the peptide
Assign rule met whenever SPOT peptide array binding signal intensity does not fall below 10; assign rule not met whenever it does.

binder	class.name
PKRRAPPPVPKKPSS	rule met
TKPTPPPKPSHLKPK	rule not met
ILARAILTIPRVLDK	rule met
NFFRKKLGIPRKLKR	rule not met
NFLRLLIGLPSQNEL	rule not met
GTIARPLFLVVLFFI	rule not met
TPEIPPPLPPKIMVH	rule not met
GRSRLFPHSPLGRSS	rule met
KFIPSRPAPKPPSSA	rule not met
WRPRIVPILPYITRL	rule not met
IPSRPAPKPPSSASA	rule not met
PALPSLPPPPLLNVD	rule not met
DRIRMFIRFPKFLLE	rule not met
TSFKGRPKPPKTLKH	rule not met
FLIKFTPKFPQSIDH	rule met
